# Assay protocol: protein stability index of a GFP-peptide fusion (yeast GPS) (PSI 1-4); higher = more stable; sorted into four equal gates, so the index is relative within each strain
# Recorded conditions: san1∆

Polymer sequence: EKCKEINVETVYDIMAL [BRR2]
protein stability index: 2.57
//
Polymer sequence: KSWLNRLNNWLFGWNDL [YMR153W/NUP53]
protein stability index: 2.03
//
Polymer sequence: ITLVEPEILRFKVYEPL [RPS16A]
protein stability index: 2.54
//
Polymer sequence: ASLKIKNATDLQQAKLR [SMC3]
protein stability index: 2.93
//
Polymer sequence: NKDMIKNLVKVLESRVN [CSN12]
protein stability index: 1.58
//
Polymer sequence: PGAKPLQVGDVVSTTAV [FAS1]
protein stability index: 2.48
//
Polymer sequence: IYAKYGAKGSTLIVVPF [FAS2]
protein stability index: 2.34
//
Polymer sequence: FLNSNAVVVGTGNIKHE [COR1]
protein stability index: 1.06
//
Polymer sequence: VFESLEINNLIQLPASL [ARP9]
protein stability index: 1.83
//
Polymer sequence: SWEEGTRQSSRNFDTHE [MCD1]
protein stability index: 3.31
//
Polymer sequence: EINSVGNPGLPQYQYQR [ITC1]
protein stability index: 2.92
//
Polymer sequence: LAYENKITDKEDLLHYI [POP4]
protein stability index: 3.2
//
Polymer sequence: CQILDGELDVLQIESVT [PRP8]
protein stability index: 2.55
//
Polymer sequence: DSDELGGESMEGPKKCI [SNM1]
protein stability index: 3.39
//
Polymer sequence: ESLTNSNMFDNSADVDM [YGL100W/SEH1]
protein stability index: 3.48
//
Polymer sequence: MKPSDNISTNTNIHEPQ [SSN2]
protein stability index: 3.1
//
Polymer sequence: ILVLALEDLKDVYASKV [PRP8]
protein stability index: 2.85
//
Polymer sequence: YAKEDAFSYPRMYEEAS [RPN2]
protein stability index: 1.27
//
Polymer sequence: MSGAAAASAAGYDRHIT [SCL1]
protein stability index: 3.27
//
Polymer sequence: QHTTESDNISRKYEISF [RPB2]
protein stability index: 2.92
//
Polymer sequence: PDYYMIIKYPVAFDNIN [SNF2]
protein stability index: 1.97
//
Polymer sequence: ATGKKSRGINKGHKFNN [RPL15A]
protein stability index: 2.34
//
Polymer sequence: LAPARVRRRFARGMTSK [RPS15]
protein stability index: 3.11
//
Polymer sequence: ELYSFQQLVDSEKRLDH [SNF12]
protein stability index: 2.26
//
Polymer sequence: LERTAIELKTDWVRFLA [RPN1]
protein stability index: 1.55
//
Polymer sequence: FNVPVVSKQLGNGLVDE [YAR002W/NUP60]
protein stability index: 3.26
//
Polymer sequence: HTEDEQIEKKKICRGRM [SIR4]
protein stability index: 3.48
//
Polymer sequence: DVEDDDKETQLKKRAVS [POP7]
protein stability index: 2.41
//
Polymer sequence: SAIDEEIEELIDSINGP [SMC3]
protein stability index: 3.08
//
Polymer sequence: ATSTNPAKSASARGSYL [RPL17A]
protein stability index: 2.53
